- test.description: Tmax in mouse at 2 mg/kg, iv
- Type: ADME, organism-based
- experimental.context: in vivo

structure.smiles.string | Tmax, min
CCN1CCN(Cc2ccc(NC(=O)c3cc(Cl)cc(NC(=O)c4cncc(-c5cccs5)c4)c3)cc2C(F)(F)F)CC1 | 4.8

====

Overview of recorded selectivity ratio for various compounds
- test.description: Selectivity index, ratio of EC50 for human HepG2 cells to EC50 for multidrug-resistant Plasmodium falciparum Dd2 at ring stage infected in A+ erythrocytes
- Format: toxicity, cell-based
- experimental.context: read-out: Ratio EC50

structure.smiles.string | selectivity ratio
CCN1CCN(Cc2ccc(NC(=O)c3cc(Br)cc(NC(=O)c4cncc(-c5cccs5)c4)c3)cc2C(F)(F)F)CC1 | 72
CCN1CCN(Cc2ccc(NC(=O)c3cc(Cl)cc(Nc4cncc(-c5cccs5)c4)c3)cc2C(F)(F)F)CC1 | 12
CCN1CCN(Cc2ccc(NC(=O)c3cc(Cl)cc(NC(=O)c4cncc(C#N)c4)c3)cc2C(F)(F)F)CC1 | 58
CCN1CCN(Cc2ccc(NC(=O)c3ccnc(NC(=O)c4cncc(-c5cccs5)c4)c3)cc2C(F)(F)F)CC1 | 5.2
